Molecular target: FOLR1 on FOLR1-positive Igrov1 cells (UniProt P15328 25-234, limits assumed)
Sequence (P15328 25-234 limits assumed): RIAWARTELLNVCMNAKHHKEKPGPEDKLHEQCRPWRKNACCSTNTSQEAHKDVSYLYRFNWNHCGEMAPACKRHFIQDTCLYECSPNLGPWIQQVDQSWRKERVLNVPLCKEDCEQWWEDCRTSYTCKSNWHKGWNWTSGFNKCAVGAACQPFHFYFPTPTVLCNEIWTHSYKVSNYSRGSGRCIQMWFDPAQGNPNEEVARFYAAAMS
Test: cell-based or functional assay
Kindly state Igrov 2° Antibody Cell Killing, Nb-SC239: EC50 for each of the entries shown.
Numbers only, in nM.

// known answers, use as guide
binder | val
SRP2060-E10 (antibody, V domains shown) VH: EVQLLESGGGLVQPGGSLRLSCAFSGFSLSTFGMGVGWVRQAPGKGLEWVSHIWWDDDKYYHPALKGRFTISKDNSKNTVYLQMNSLRAEDTAVYYCGRNHFPHYYGSSHWYFNVWGQGTTVTVSS VL: EIVMTQSPATLSLSPGERATLSCKASQDINSYLSWYQQKPGQAPRLLIYRANRLVDGIPARFSGSGSGTDYTLTISSLEPEDFAVYYCLQYDEFPYTFGGGTKVEIK | 0.061
SRP2060-E05 (antibody, V domains shown) VH: EVQLLESGGGLVQPGGSLRLSCAFSGFSLSTFGMGVGWVRQAPGKGLEWVSHIWWDDDKYYHPALKGRFTVSKDNSKNTVYLQMNSLRAEDTAVYYCGRNHFPHYYGSSHWYFNVWGQGTTVTVSS VL: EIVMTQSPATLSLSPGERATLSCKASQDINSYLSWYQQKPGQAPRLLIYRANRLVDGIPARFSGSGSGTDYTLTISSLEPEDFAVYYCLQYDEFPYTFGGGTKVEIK | 0.22
SRP2060-A06 (antibody, V domains shown) VH: EVQLLESGGGLVQPGGSLRLSCAFSGFSLSTFGMGVGWVRQAPGKGLEWVGHIWWDDDKYYYPALKGRFTISKDNSKNTVYLQMNSLRAEDTAVYYCGRNHFPHYYGSSHWYFDVWGQGTTVTVSS VL: DIQMTQSPSTLSASVGDRVTITCKASQDINSYLSWYQQKPGKAPKLLIYRANRLVDGVPSRFSGSGSGTEFTLTISSLQPDDFATYYCLQYDEFPYTFGGGTKVEIK | 0.013

Query: Can you look up the measured Igrov 2° Antibody Cell Killing, Nb-SC239: EC50 of SRP2060-B01 (antibody, V domains shown) VH: EVQLLESGGGLVQPGGSLRLSCALSGFSLSTFGMGVGWVRQATGKGLEWVSHIWWDDDKYYHPALKGRFTISKDNSKNTVHLQMNSLRAEDTAVYYCGRNHFPHYYGSSHWYFNVWGQGTTVTVSS VL: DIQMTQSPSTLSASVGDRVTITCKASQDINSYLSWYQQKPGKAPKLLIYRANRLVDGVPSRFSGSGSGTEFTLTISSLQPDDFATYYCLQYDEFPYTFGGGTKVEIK for me?
Result: 0.045

Taken from patent US20190233512A1.
